Tested on: HCT-15

# compound, units_text, operator, GI50
rows = [
    ("N#C[BH2-][n+]1ccc(C(=O)NNCc2ccccc2)cc1", "µM", ">", 100),
    ("CC1=NN(c2cccc(S(=O)(=O)O)c2)C2(C1)SCC(=O)N2c1nc2ccccc2s1 (stereo unspecified)", "µM", ">", 100),
    ("O=C(CSc1nnc(-c2ccc(/N=C\\c3ccc(Cl)cc3)cc2)o1)Nc1cccc(Cl)c1", "µM", ">", 100),
    ("O=[N+]([O-])c1ccc(/C=N/CC2CCCN3CCCCC23)cc1 (stereo unspecified)", "µM", "=", 42.7),
    ("CCOC(=O)C1(C#N)CC1", "µM", ">", 100),
    ("O=c1c2cc(-c3ccccc3)sc2nc2sc(-c3ccccc3)nn12", "µM", ">", 100),
    ("COc1cc(C2S/C(=C/c3ccccc3)C(=O)N2c2cc(Cl)ccc2Cl)cc(OC)c1OC (stereo unspecified)", "µM", "=", 38.3),
    ("CC12CCCCC1=C(F)C(F)(F)S2 (stereo unspecified)", "µM", "=", 32.7),
    ("O=C(O)c1ccccc1CC(Cc1ccccc1)C(=O)O (stereo unspecified)", "µM", ">", 100),
    ("Cc1c(Cl)c(C)c(Cl)c(O)c1Cl", "µM", "=", 21.8),
    ("COC(=O)c1ccccc1C1=C([N+](=O)[O-])C(c2ccccc2)C(C#N)=C(N)O1 (stereo unspecified)", "µM", "=", 19.8),
]
